method: in vitro
cond: human, HEL cells
measuredParameter: CC50 at 72 h (µM)
Return type: number; implicit unit µM.

CC(C)(C)c1ccc(-n2cc(-c3cn([C@H]4C[C@H](O)[C@@H](CO)O4)c(=O)[nH]c3=O)nn2)cc1 12.4
O=c1[nH]c(=O)n([C@H]2C[C@H](O)[C@@H](CO)O2)cc1-c1cn(-c2ccc(Oc3ccccc3)cc2)nn1 0.45
CSc1ccc(-n2cc(-c3cn([C@H]4C[C@H](O)[C@@H](CO)O4)c(=O)[nH]c3=O)nn2)cc1 27

Now for the compound whose CC50 at 72 h we want.
stdin: I am curious: what CC50 at 72 h value has been reported for O=c1[nH]c(=O)n([C@H]2C[C@H](O)[C@@H](CO)O2)cc1-c1cn(-c2cc(F)cc(F)c2)nn1 ?
stdout: 36
